Biological target: Mitochondrial respiratory complex II (Mus musculus, UniProt Q8K2B3+Q9CQA3+Q9CXV1+Q9CZB0)
Sequence (Q8K2B3 43-664): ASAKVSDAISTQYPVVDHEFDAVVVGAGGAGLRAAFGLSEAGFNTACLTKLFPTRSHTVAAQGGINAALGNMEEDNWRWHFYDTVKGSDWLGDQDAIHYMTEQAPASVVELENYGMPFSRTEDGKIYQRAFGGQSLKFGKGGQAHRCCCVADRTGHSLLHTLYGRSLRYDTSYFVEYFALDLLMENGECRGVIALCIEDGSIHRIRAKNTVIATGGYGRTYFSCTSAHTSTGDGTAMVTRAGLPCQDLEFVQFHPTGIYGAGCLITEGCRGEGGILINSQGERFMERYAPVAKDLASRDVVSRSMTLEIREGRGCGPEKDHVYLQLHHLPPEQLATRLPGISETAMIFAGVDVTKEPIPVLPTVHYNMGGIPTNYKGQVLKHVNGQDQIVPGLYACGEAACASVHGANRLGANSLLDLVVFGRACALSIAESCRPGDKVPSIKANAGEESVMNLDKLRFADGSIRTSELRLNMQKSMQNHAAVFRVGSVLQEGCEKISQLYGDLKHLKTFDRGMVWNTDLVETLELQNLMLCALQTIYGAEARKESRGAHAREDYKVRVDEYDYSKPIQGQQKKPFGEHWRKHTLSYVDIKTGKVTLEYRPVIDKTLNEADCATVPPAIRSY
Sequence (Q9CQA3 31-282): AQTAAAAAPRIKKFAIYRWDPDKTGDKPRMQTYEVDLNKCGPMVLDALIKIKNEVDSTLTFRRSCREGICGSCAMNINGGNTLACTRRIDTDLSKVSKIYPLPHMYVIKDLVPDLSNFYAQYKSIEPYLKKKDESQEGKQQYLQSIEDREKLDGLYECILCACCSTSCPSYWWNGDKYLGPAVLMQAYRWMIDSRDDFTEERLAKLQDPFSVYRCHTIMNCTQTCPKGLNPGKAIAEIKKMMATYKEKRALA
Sequence (Q9CZB0 30-169): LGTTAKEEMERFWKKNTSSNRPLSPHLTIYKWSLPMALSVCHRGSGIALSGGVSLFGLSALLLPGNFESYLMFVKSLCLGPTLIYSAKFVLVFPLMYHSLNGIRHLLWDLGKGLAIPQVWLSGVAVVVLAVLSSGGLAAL
Sequence (Q9CXV1 57-159): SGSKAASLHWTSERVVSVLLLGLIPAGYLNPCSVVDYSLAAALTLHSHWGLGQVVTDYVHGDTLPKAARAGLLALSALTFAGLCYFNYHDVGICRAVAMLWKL
Assay: Complex II inhibition assay
Assay type: biochemical
Settings: read-out: % Inhibition CII (100 μM), 100 μM; mouse liver mitochondria; mean ±SD of n = 4
measuredParameter: inhibition at 100 µM (%)

Example entries begin here.
{"compound": "O=S1(=O)N=C(NCc2ccc(F)cc2)Nc2cc(Cl)ccc21 [Compound 17b]", "readingUnit": "%", "inhibition at 100 µM": 0}
{"compound": "CCNC1=NS(=O)(=O)c2ccccc2N1 [Compound 19d]", "readingUnit": "%", "inhibition at 100 µM": 0}

[1] CSC1=NS(=O)(=O)c2cc(F)ccc2N1C [Compound 42a]
[2] COc1ccc(CNC2=NS(=O)(=O)c3cc(F)ccc3N2)cc1 [Compound 20a]
[3] CSC1=NS(=O)(=O)c2cc(Br)ccc2N1 [Compound 13c]
In: # rank_down: sort by inhibition at 100 µM, max first List labels; respect the requested ordering.
Out: 3, 1, 2
(3: 10%, 1: 6%, 2: 0%)

###

Biological target: Mitochondrial respiratory complex II (Mus musculus, UniProt Q8K2B3+Q9CQA3+Q9CXV1+Q9CZB0)
Assay: Complex II inhibition assay
Type: biochemical
Settings: read-out: % Inhibition CII (100 μM), 100 μM; mouse liver mitochondria; mean ±SD of n = 4
measuredParameter: inhibition at 100 µM (%)

{"compound": "COc1cccc(CNC2=NS(=O)(=O)c3cc(Br)ccc3N2)c1 [Compound 28c]", "readingUnit": "%", "inhibition at 100 µM": 24}
{"compound": "O=S1(=O)N=C(NCCc2ccccc2)Nc2cc(Cl)ccc21 [Compound 18b]", "readingUnit": "%", "inhibition at 100 µM": 19}

[A] COc1ccccc1CNC1=NS(=O)(=O)c2cc(F)ccc2N1 [Compound 26a]
[B] CC(C)C(C)NC1=NS(=O)(=O)c2ccc(Cl)cc2N1 (stereo not shown) [Compound 15b]
[C] COc1ccc(CCNC2=NS(=O)(=O)c3cc(F)ccc3N2)cc1 [Compound 39a]
[D] O=S1(=O)N=C(NCc2ccc(OC(F)(F)F)cc2)Nc2ccccc21 [Compound 30d]
[E] CC(NC1=NS(=O)(=O)c2cc(Br)ccc2N1)c1ccccc1 (stereo not shown) [Compound 24c]
In: Order the records by inhibition at 100 µM, with each subsequent value no larger than the one before. Answer by writing out the labels in the requested order.
Out: E, A, C, D, B

[P] CCNC1=NS(=O)(=O)c2ccc(Cl)cc2N1 [Compound 19b]
[Q] COc1ccc(CCNC2=NS(=O)(=O)c3cc(Br)ccc3N2)cc1 [Compound 34c]
In: Among P and Q , which shows a numerically higher inhibition at 100 µM result? Reply with the label of the item you choose.
Out: Q
(Q: 17%, P: 0%)

[a] O=S1(=O)N=C(NCc2ccccc2)Nc2ccccc21 [Compound 21d]
[b] CC(C)NC1=NS(=O)(=O)c2cc(F)ccc2N1 [Compound 14a]
In: I need your help: which of the pair a , b has higher inhibition at 100 µM? Let me know the label of the one you choose.
Out: b
(b: 4%, a: 0%)

###

System: TNBC MDA-MB-468 cells
Assay: MTS cytotoxicity assay in MDA-MB-468 cells
Type: cell-based
Details: read-out: MDA-MB-468 IC50; 72 hours; mean ±SD of n=3
# pIC50 listing for each entry below
Just the number, please; pIC50 means minus log10 of the concentration in mol/L.

Sample answers from the record:
{"compound": "O=S1(=O)N=C(NCc2ccc(C(F)(F)F)cc2)Nc2cc(Cl)ccc21 [Compound 25b]", "pIC50": 4.60}
{"compound": "O=S1(=O)N=C(NCc2ccc(OC(F)(F)F)cc2)Nc2ccc(Br)cc21 [Compound 30c]", "pIC50": 4.74}
{"compound": "O=S1(=O)N=C(NCc2ccc(Cl)cc2)Nc2ccc(Br)cc21 [Compound 16c]", "pIC50": 4.90}

Input CC1=Nc2ccc(Cl)cc2S(=O)(=O)N1 [Diazoxide, reference compound] . Output pIC50: 3.36

###

Molecular target: Mitochondrial respiratory complex II (Mus musculus, UniProt Q8K2B3+Q9CQA3+Q9CXV1+Q9CZB0)
Assay: Complex II inhibition assay
Assay type: biochemical
Details: 100 μM; mouse liver mitochondria; mean ±SD of n = 4
measuredParameter: % Inhibition CII (100 μM) (%)

Examples from the recorded data:
{"compound": "O=S1(=O)N=C(NCc2ccc(OC(F)(F)F)cc2)Nc2ccc(Br)cc21 [Compound 30c]", "resultNumber": 22}
{"compound": "O=S1(=O)N=C(NCCCc2ccccc2)Nc2ccc(Br)cc21 [Compound 23c]", "resultNumber": 46}

[a] O=S1(=O)N=C(NCc2ccc(Cl)cc2)Nc2ccc(Br)cc21 [Compound 16c]
[b] O=S1(=O)N=C(NCc2ccc(C(F)(F)F)cc2)Nc2cc(Cl)ccc21 [Compound 25b]
In: Which of the two items, a and b , has the greater recorded % Inhibition CII (100 μM)? Answer format: the label of the selected item.
Out: a

###

Molecular target: Mitochondrial respiratory complex II (Mus musculus, UniProt Q8K2B3+Q9CQA3+Q9CXV1+Q9CZB0)
Assay: Complex II inhibition assay
Format: biochemical
Conditions: read-out: % Inhibition CII (100 μM), 100 μM; mouse liver mitochondria; mean ±SD of n = 4
measuredParameter: inhibition at 100 µM (%)

{"molecule": "O=S1(=O)N=C(NCc2ccc(F)cc2)Nc2ccc(F)cc21 [Compound 17a]", "measuredParameter": "inhibition at 100 µM", "resultNumber": 1}
{"molecule": "CC(C)C(C)NC1=NS(=O)(=O)c2ccccc2N1 (centres unmarked) [Compound 15d]", "measuredParameter": "inhibition at 100 µM", "resultNumber": 0}
{"molecule": "C=CCNC1=NS(=O)(=O)c2ccccc2N1 [Compound 32d]", "measuredParameter": "inhibition at 100 µM", "resultNumber": 2}

[a] O=C1Nc2ccccc2S(=O)(=O)N1 [Compound 11d]
[b] O=S1(=O)N=C(NCc2ccc(OC(F)(F)F)cc2)Nc2ccc(F)cc21 [Compound 30a]
In: Looking at recorded values for inhibition at 100 µM, does a or b come in lower? Identify your pick by its label.
Out: a
(a: 0%, b: 2%)

[I] CC(C)NC1=NS(=O)(=O)c2ccccc2N1 [Compound 14d]
[II] O=S1(=O)N=C(NCCc2c[nH]c3ccccc23)Nc2ccc(F)cc21 [Compound 36a]
In: Kindly identify the item with the lower inhibition at 100 µM figure among these two: I and II # reply format: chosen label
Out: I
(I: 0%, II: 17%)

###

Biological target: Mitochondrial respiratory complex II (Mus musculus, UniProt Q8K2B3+Q9CQA3+Q9CXV1+Q9CZB0)
Test: Complex II inhibition assay
Format: biochemical
Conditions: read-out: % Inhibition CII (100 μM), 100 μM; mouse liver mitochondria; mean ±SD of n = 4
measuredParameter: inhibition at 100 µM (%)

{"compound": "O=S1(=O)N=C(NCCCc2ccccc2)Nc2ccccc21 [Compound 23d]", "readingUnit": "%", "inhibition at 100 µM": 0}

[P] O=S1(=O)NC(=S)Nc2ccccc21 [Compound 12d]
[Q] CC(C)NC1=NS(=O)(=O)c2ccccc2N1C [Compound 43d]
In: Determine, for P and Q , which has the greater value of inhibition at 100 µM. Output the label that corresponds to your choice.
Out: P
(P: 2%, Q: 0%)

###

Tested on: low tumorigenic human endothelial kidney (HEK293) cells
Experiment: MTS cytotoxicity assay in HEK293 cells
Format: cell-based
Conditions: read-out: HEK293 IC50; 72 hours; mean ±SD of n=3
measuredParameter: IC50 (µM)
// note: answer is a bare numeric in µM

Measured IC50, O=S1(=O)N=C(NCc2ccc(Cl)cc2)Nc2ccc(Br)cc21 [Compound 16c] : 43.1

###

Molecular target: Mitochondrial respiratory complex II (Mus musculus, UniProt Q8K2B3+Q9CQA3+Q9CXV1+Q9CZB0)
Assay: Complex II inhibition assay
Assay type: biochemical
Details: read-out: % Inhibition CII (100 μM), 100 μM; mouse liver mitochondria; mean ±SD of n = 4
measuredParameter: inhibition at 100 µM (%)

{"compound": "O=S1(=O)N=C(NCCc2ccccc2)Nc2ccc(Br)cc21 [Compound 18c]", "resultNumber": 37}
{"compound": "CC(NC1=NS(=O)(=O)c2ccc(Cl)cc2N1)c1ccccc1 (centres unmarked) [Compound 24b]", "resultNumber": 51}
{"compound": "O=S1(=O)NC(=S)Nc2ccc(F)cc21 [Compound 12a]", "resultNumber": 0}

[P] COc1ccccc1CNC1=NS(=O)(=O)c2cc(Br)ccc2N1 [Compound 26c]
[Q] COc1ccc(CNC2=NS(=O)(=O)c3ccccc3N2)cc1 [Compound 20d]
In: When their inhibition at 100 µM values are compared, which is larger, P or Q ? Answer format: the label of the selected item.
Out: P
